Data origin, for the record: paper PMC10901556

# TESTED_SYSTEM: MDM2 SWIB domain from Takifugu rubripes (Japanese puffer) (Takifugu rubripes (Japanese puffer))
# METHOD: fluorescence polarisation; displacement: complex of MDM2 (0.2-2 μM) and FITC-p53TAD_(human)^15–26 (15 nM) displaced by increasing unlabeled p53TAD peptide or p53TAD^full-length; KD calculated from IC50 (Nikolovska-Coleska et al. 2004); 20 mM sodium phosphate pH 7.4, 150 mM NaCl, 1 mM TCEP
pKd: −log10 of the molar value. Where no end group is shown, it is not given here.
ATTRIBUTE_MEASURED: pKd

[[record]]
binder = "Ac-SQDTFQDLWENVA [Takifugu rubripes (Japanese puffer) p53TADP1 p53TAD^15–27]"
reported = 5.35

